Target Entity: T1, human CD11a (human, UniProt P20701 26-1170)
T1 construct: whole, on cells; On Jurkat T-cells or human peripheral blood mononuclear cells, as part of LFA-1; also called CD11a on Jurkat cells; alpha subunit of LFA-1
T1 sequence (P20701 26-1170): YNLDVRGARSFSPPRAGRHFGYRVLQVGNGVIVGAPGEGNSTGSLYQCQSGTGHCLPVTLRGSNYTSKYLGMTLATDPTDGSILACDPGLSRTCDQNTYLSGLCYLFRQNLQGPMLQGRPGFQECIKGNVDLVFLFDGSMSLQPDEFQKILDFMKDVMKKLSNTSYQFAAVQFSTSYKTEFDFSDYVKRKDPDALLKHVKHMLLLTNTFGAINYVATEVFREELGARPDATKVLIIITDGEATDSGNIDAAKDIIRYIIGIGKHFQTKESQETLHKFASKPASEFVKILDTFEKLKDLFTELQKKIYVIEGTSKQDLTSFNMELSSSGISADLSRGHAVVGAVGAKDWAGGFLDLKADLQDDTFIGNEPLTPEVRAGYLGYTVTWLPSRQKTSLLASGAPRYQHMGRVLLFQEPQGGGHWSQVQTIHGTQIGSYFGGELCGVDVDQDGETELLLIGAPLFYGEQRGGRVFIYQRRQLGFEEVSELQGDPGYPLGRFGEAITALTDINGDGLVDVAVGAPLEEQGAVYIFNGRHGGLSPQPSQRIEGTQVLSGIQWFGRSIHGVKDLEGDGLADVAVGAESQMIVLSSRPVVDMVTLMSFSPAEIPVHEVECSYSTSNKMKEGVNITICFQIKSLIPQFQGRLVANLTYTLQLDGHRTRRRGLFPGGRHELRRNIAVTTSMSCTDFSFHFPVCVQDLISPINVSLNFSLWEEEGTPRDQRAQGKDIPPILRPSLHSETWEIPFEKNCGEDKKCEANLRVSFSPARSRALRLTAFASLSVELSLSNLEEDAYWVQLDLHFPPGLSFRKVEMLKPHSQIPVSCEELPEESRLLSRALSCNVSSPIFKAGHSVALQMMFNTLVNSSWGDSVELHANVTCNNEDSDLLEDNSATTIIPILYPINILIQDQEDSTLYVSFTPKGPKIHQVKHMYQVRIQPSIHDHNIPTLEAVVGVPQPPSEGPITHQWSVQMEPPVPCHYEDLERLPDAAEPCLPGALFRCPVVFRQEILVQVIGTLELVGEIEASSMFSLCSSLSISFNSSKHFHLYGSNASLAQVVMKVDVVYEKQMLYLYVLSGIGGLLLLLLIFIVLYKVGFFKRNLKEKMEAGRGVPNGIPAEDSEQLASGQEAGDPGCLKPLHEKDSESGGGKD
Measurement Description: FACScan, Jurkat cells
Procedure: Aliquots of 10⁶ Jurkat T-cells were incubated with serial dilutions of humanized and control antibodies in PBS-0.1% BSA-10 mM sodium azide for 45 min at 4° C. The cells were washed and then incubated in fluorescein-conjugated goat anti-human F(ab′)₂ (Organon Teknika, Westchester, Pa.) for 45 min at 4° C. Cells were washed and analysed on a FACScan (Becton Dickinson, Mountain View, Calif.). […]
Assay Endpoint: Var.EC50/HuIgG1 EC50 (ratio)
Expressed in ratio, but write only the number.

Check out these entries, answers already filled in.
{"Binder": "HuIgG1 mutant TyrH99Ala (antibody, V domains shown, HuIgG1 mutant, human IgG1; Kabat numbering) VH: EVQLVESGGGLVQPGGSLRLSCAASGYSFTGHWMNWVRQAPGKGLEWVGMIHPSDSETRYNQKFKDRFTISVDKSKNTLYLQMNSLRAEDTAVYYCARGIYFAGTTYFDYWGQGTLVTVSS VL: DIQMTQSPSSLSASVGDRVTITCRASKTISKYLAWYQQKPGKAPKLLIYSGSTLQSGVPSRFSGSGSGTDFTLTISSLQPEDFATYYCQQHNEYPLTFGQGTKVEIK", "Var.EC50/HuIgG1 EC50 [ratio]": 1.4}
{"Binder": "HuIgG1 mutant LysH73Ala (antibody, V domains shown, HuIgG1 mutant, human IgG1; Kabat numbering) VH: EVQLVESGGGLVQPGGSLRLSCAASGYSFTGHWMNWVRQAPGKGLEWVGMIHPSDSETRYNQKFKDRFTISVDASKNTLYLQMNSLRAEDTAVYYCARGIYFYGTTYFDYWGQGTLVTVSS VL: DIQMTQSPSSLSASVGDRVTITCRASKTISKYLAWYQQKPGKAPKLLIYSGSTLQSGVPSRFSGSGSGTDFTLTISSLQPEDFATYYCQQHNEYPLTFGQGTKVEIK", "Var.EC50/HuIgG1 EC50 [ratio]": 5.2}

Reported Var.EC50/HuIgG1 EC50 of HuIgG1 mutant ThrH100bAla (antibody, V domains shown, HuIgG1 mutant, human IgG1; Kabat numbering) VH: EVQLVESGGGLVQPGGSLRLSCAASGYSFTGHWMNWVRQAPGKGLEWVGMIHPSDSETRYNQKFKDRFTISVDKSKNTLYLQMNSLRAEDTAVYYCARGIYFYGTAYFDYWGQGTLVTVSS VL: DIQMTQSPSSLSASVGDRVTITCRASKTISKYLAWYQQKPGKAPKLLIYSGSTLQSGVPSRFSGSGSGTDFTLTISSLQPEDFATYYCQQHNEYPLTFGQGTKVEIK : 1.4

Var.EC50/HuIgG1 EC50 reported for this binder HuIgG1 mutant H2A3 (antibody, V domains shown, HuIgG1 mutant, human IgG1; Kabat numbering) VH: EVQLVESGGGLVQPGGSLRLSCAASGYSFTGHWMNWVRQAPGKGLEWVGMIAPSDAETRYNQKFKDRFTISVDKSKNTLYLQMNSLRAEDTAVYYCARGIYFYGTTYFDYWGQGTLVTVSS VL: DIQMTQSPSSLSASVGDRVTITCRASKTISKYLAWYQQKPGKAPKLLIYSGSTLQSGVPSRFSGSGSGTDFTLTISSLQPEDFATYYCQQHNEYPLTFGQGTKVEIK : 4.6

Cited source: patent US20040146507A1
